# Study system: HLA-A*02:02
# Assay text: IEDB peptide-MHC binding, purified MHC/competitive/radioactivity; filed as Kd, often an IC50 or EC50 that approximates it; bounds were set here for any values at or beyond the usual limits of such assays
# Condition details: source organism: Lassa virus Josiah
Assay metric: pKd
pKd is a log-scale quantity: -log10 of the concentration expressed in molar.

Ask | Fill in: pKd of `IMTSYQYLI` is ___
Reply | 6.68

* * *

# Study system: HLA-B*08:01
# Assay text: IEDB peptide-MHC binding, purified MHC/competitive/fluorescence; filed as Kd, often an IC50 or EC50 that approximates it; bounds were set here for any values at or beyond the usual limits of such assays
# Condition details: source organism: Mycobacterium tuberculosis variant bovis BCG str. Pasteur 1173P2
Assay metric: pKd
Scale note: pKd = -log10(concentration in M).

Ask | Sample `RPRLHSISF` — what was its pKd?
Reply | 7.80

* * *

# Study system: HLA-B*07:02
# Assay text: IEDB peptide-MHC binding, purified MHC/direct/fluorescence; filed as Kd, often an IC50 or EC50 that approximates it; bounds were set here for any values at or beyond the usual limits of such assays
# Condition details: source organism: Bacillus anthracis
Assay metric: Kd

Ask | Dear colleague, I am looking for the recorded Kd of the following sequence: `REFEAQNVP`
Reply | ≥ 20 µM

* * *

# Study system: HLA-B*27:05
# Assay text: IEDB peptide-MHC binding, purified MHC/direct/fluorescence; filed as Kd, often an IC50 or EC50 that approximates it; bounds were set here for any values at or beyond the usual limits of such assays
# Condition details: source organism: Brucella melitensis
Assay metric: pKd
In simple prose, pKd is minus the logarithm base ten of a concentration in moles per litre.

Ask | # query: pKd | item `GRDHVRVTL` | system: HLA-B*27:05
Reply | 6.50

* * *

# Study system: HLA-A*69:01
# Assay text: IEDB peptide-MHC binding, purified MHC/competitive/fluorescence; filed as Kd, often an IC50 or EC50 that approximates it; bounds were set here for any values at or beyond the usual limits of such assays
# Condition details: source organism: Reston ebolavirus
Assay metric: Kd

Ask | # get_value(readout='Kd', item= `LPRERFRKT` )
Reply | ≥ 20 µM

* * *

Reported Kd values are given for each entry in this list.
# Study system: HLA-A*68:02
# Assay text: IEDB peptide-MHC binding, purified MHC/competitive/fluorescence; filed as Kd, often an IC50 or EC50 that approximates it; bounds were set here for any values at or beyond the usual limits of such assays
# Condition details: source organism: Homo sapiens

FWAWSVLRV : ≥ 20 µM

Now take the following sequence into account.
Ask | Form field: reported Kd of `TYSPALNKM`
Reply | 3.22 µM

* * *

# Study system: HLA-A*02:11
# Assay text: IEDB peptide-MHC binding, purified MHC/direct/fluorescence; filed as Kd, often an IC50 or EC50 that approximates it; bounds were set here for any values at or beyond the usual limits of such assays
# Condition details: source organism: Squirrelpox virus
pKd: −log10 of the molar value.
Assay metric: pKd

Ask | Tell me reported pKd for `MACHRVLTY` , tested with HLA-A*02:11.
Reply | ≤ 4.70

* * *

# Study system: HLA-A*01:01
# Assay text: IEDB peptide-MHC binding, purified MHC/direct/fluorescence; filed as Kd, often an IC50 or EC50 that approximates it; bounds were set here for any values at or beyond the usual limits of such assays
# Condition details: source organism: Influenza A virus (A/tern/Australia/1/04(H2N5))
pKd: −log10 of the molar value.
Assay metric: pKd

Ask | Value lookup for pKd; key = `LLTEVETYV`
Reply | ≤ 4.70

* * *

# Study system: HLA-C*05:01
# Assay text: IEDB peptide-MHC binding, purified MHC/direct/fluorescence; filed as Kd, often an IC50 or EC50 that approximates it; bounds were set here for any values at or beyond the usual limits of such assays
# Condition details: source organism: Yersinia pestis CO92
Assay metric: Kd

Ask | Using the record for `YQLEMYHPI` , report its Kd.
Reply | ≥ 20 µM

* * *

# Study system: HLA-A*02:03
# Assay text: IEDB peptide-MHC binding, purified MHC/competitive/radioactivity; filed as Kd, often an IC50 or EC50 that approximates it; bounds were set here for any values at or beyond the usual limits of such assays
# Condition details: source organism: Vaccinia virus WR
Each entry below lists one item and its recorded pKd value.
Reminder that pKd means the negative base-10 logarithm of the concentration expressed in mol/L.

YIRRNMINKL : 7.16

Ask | Value lookup for pKd; key = `MAFILGIIIT`
Reply | 5.55

Ask | Then what about the sequence `ETQSGALEVL` ?
Reply | 4.84

Ask | Same read-out for `GTIILNKIV` ?
Reply | 5.47

Ask | Okay, and `YAVLSEYETM` ?
Reply | 5.02

Ask | Again, but for `KVIKLVKSLV`
Reply | 4.87

Ask | Please give the result for `TISGNIYSA` too.
Reply | 7.72

Ask | Repeat for the following sequence: `KINPLLDEPL`
Reply | 6.52

Ask | Please do the same for `AVTLNRIKI` as well.
Reply | 5.48

Ask | What do you have for `VQFSILNNPV` ?
Reply | 6.43

Ask | What would you report for `YLGHSAGFTA` ?
Reply | 7.06

Ask | Another sequence to check: `DVDMDFDLNI`
Reply | 5.82

Ask | Follow-up entry: `ATFRDMLLNV`
Reply | 9.40

Ask | Again, but for `IMAFILGIII`
Reply | 5.50

Ask | Please give the result for `QLSNNKYVL` too.
Reply | 5.31

Ask | Let us now turn to `SILSLETVKM`
Reply | 6.34

Ask | `LLKETIQKDI` , same question.
Reply | 6.11

* * *

# Study system: HLA-B*40:01
# Assay text: IEDB peptide-MHC binding, purified MHC/direct/fluorescence; filed as Kd, often an IC50 or EC50 that approximates it; bounds were set here for any values at or beyond the usual limits of such assays
# Condition details: source organism: West Nile virus
pKd: −log10 of the molar value.
Assay metric: pKd

Ask | Returns the measured pKd for the input sequence. Input: `FVDVGVSAL`
Reply | ≤ 4.70

* * *

# Study system: HLA-B*44:03
# Assay text: IEDB peptide-MHC binding, purified MHC/competitive/fluorescence; bounds were set here for any values at or beyond the usual limits of such assays
# Condition details: source organism: Pan troglodytes
Assay metric: IC50

Ask | // returns reported IC50 for input `RPPYSSYGY`
Reply | ≥ 20 µM

* * *

# Study system: HLA-B*18:01
# Assay text: IEDB peptide-MHC binding, purified MHC/competitive/fluorescence; filed as Kd, often an IC50 or EC50 that approximates it; bounds were set here for any values at or beyond the usual limits of such assays
# Condition details: source organism: Entamoeba histolytica HM-1:IMSS
Assay metric: Kd

Ask | Look up Kd for this sequence: `IEAKINVAD`
Reply | 389 nM

* * *

# Study system: HLA-A*68:02
# Assay text: IEDB peptide-MHC binding, purified MHC/direct/fluorescence; filed as Kd, often an IC50 or EC50 that approximates it; bounds were set here for any values at or beyond the usual limits of such assays
# Condition details: source organism: Reston ebolavirus
Assay metric: Kd

Ask | Consider the sequence `LPRERFRKT` and give its measured Kd.
Reply | ≥ 20 µM

* * *

# Study system: HLA-B*07:02
# Assay text: IEDB peptide-MHC binding, purified MHC/direct/fluorescence; filed as Kd, often an IC50 or EC50 that approximates it; bounds were set here for any values at or beyond the usual limits of such assays
# Condition details: source organism: Marburg virus - Musoke, Kenya, 1980
pKd: −log10 of the molar value.
Measured pKd by item

IFDDLQGSL : ≤ 4.70

Moving on to another sequence below.
Ask | What value of pKd has been reported for the following sequence? `NRWKSWFSY`
Reply | ≤ 4.70

* * *

# Study system: HLA-B*15:01
# Assay text: IEDB peptide-MHC binding, purified MHC/competitive/fluorescence; filed as Kd, often an IC50 or EC50 that approximates it; bounds were set here for any values at or beyond the usual limits of such assays
# Condition details: source organism: Reston ebolavirus
Assay metric: Kd

Ask | Any idea what Kd was measured for `LPRERFRKT` ?
Reply | ≥ 20 µM

* * *

# Study system: HLA-A*26:01
# Assay text: IEDB peptide-MHC binding, purified MHC/direct/fluorescence; filed as Kd, often an IC50 or EC50 that approximates it; bounds were set here for any values at or beyond the usual limits of such assays
# Condition details: source organism: Mycobacterium tuberculosis str. Haarlem
Assay metric: Kd

Ask | Request the reported Kd associated with `RPAGARAAF`
Reply | ≥ 20 µM

* * *

# Study system: HLA-B*07:02
# Assay text: IEDB peptide-MHC binding, purified MHC/competitive/fluorescence; bounds were set here for any values at or beyond the usual limits of such assays
# Condition details: source organism: Variola virus
Assay metric: IC50 (µM)
Respond with the bare value in µM.

Ask | Please look up its IC50: `LPNPAFIHI`
Reply | 11
